Target: T1, cynomolgus monkey C-MET His tag, monomeric (cynomolgus monkey, UniProt A0M8R7 25-932 (Papio anubis entry))
T1 construct: also called monomeric cyno C-MET; cyCMET
T1 sequence (A0M8R7 25-932 S170N/I621T): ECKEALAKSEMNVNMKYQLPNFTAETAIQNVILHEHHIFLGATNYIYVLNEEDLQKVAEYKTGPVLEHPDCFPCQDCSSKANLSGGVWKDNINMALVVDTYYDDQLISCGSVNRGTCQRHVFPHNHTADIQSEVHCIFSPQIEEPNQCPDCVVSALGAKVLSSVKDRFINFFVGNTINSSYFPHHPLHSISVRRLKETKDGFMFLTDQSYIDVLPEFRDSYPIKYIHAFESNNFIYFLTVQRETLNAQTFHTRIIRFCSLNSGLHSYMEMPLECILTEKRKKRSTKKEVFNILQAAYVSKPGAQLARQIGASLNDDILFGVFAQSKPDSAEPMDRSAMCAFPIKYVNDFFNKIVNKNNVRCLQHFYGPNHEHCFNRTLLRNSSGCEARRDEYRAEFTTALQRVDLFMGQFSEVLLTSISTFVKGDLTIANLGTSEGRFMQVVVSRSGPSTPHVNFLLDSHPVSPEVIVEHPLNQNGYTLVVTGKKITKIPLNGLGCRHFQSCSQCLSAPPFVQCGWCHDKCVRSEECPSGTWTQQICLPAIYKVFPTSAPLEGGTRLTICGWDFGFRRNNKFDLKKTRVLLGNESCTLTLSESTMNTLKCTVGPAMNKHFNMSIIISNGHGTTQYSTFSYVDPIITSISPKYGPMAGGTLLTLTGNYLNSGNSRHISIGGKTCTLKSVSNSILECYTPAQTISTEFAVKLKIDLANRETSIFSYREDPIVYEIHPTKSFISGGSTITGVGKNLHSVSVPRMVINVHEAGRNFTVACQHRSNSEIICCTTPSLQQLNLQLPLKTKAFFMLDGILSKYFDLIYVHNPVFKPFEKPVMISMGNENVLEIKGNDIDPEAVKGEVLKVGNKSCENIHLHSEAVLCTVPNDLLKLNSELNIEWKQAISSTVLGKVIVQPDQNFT
Experiment: SPR Biacore, IgG captured, monomeric C-MET-His analyte
pKd: −log10 of the molar value.
Hi, to clarify the labels: true (1) covers pKd from 9 upward, false (0) covers anything below 9.

Sample answers from the record:
>  <binder>
09E04 (antibody, IgG4, V domains shown) VH: QVQLVQSGAEVKKPGASVKVSCKASGYIFTSYTMHWVRQAPGQGLEWMGWINPNGGSTSYAQKFQGRVTMTRDTSTSTVYMELSSLRSEDTAVYYCARQEITTEFDYWGQGTLVTVSS VL: EIVLTQSPGTLSLSPGERATLSCRASQSVESYANSYLHWYQQKPGQAPRLLIYRGSTRESGIPDRFSGSGSGTDFTLTISRLEPEDFAVYYCQQYGSEPLTFGGGTKVEIK

>  <qualitativeLabel>
true (1)

$$$$
>  <binder>
MH6 (antibody, IgG4, V domains shown) VH: QVQLVQSGAEVKKPGASVKVSCKASGYTFTSYTMHWVRQAPGQGLEWMGWINPSGGSTSYAQKFQGRVTMTRDTSTSTVYMELSSLRSEDTAVYYCARQEITTEFDYWGQGTLVTVSS VL: EIVLTQSPGTLSLSPGERATLSCRASQSVSSYAQSYLHWYQQKPGQAPRLLIYRGSTRETGIPDRFSGSGSGTDFTLTISRLEPEDFAVYYCQQYGSSPLTFGGGTKVEIK

>  <qualitativeLabel>
false (0)

$$$$
>  <binder>
MH4 (antibody, IgG4, V domains shown) VH: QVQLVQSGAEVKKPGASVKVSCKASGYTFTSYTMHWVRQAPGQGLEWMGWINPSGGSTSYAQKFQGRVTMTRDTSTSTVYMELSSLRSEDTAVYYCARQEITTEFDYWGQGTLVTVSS VL: EIVLTQSPGTLSLSPGERATLSCRASQSVSSYANSYLHWYQQKPGQAPRLLIYRGSTRESGIPDRFSGSGSGTDFTLTISRLEPEDFAVYYCQQSKSEPLTFGGGTKVEIK

>  <qualitativeLabel>
true (1)

$$$$

Asked: Is pKd at least 9? Consider h224G11 (humanized 224G11) (antibody, human IgG4, V domains shown, also called Humanized h224G11; 224G11 IgG4(S228P)) VH: QVQLVQSGAEVKKPGASVKVSCKASGYIFTAYTMHWVRQAPGQGLEWMGWIKPNNGLANYAQKFQGRVTMTRDTSISTAYMELSRLRSDDTAVYYCARSEITTEFDYWGQGTLVTVSS VL: DIVMTQSPDSLAVSLGERATINCKSSESVDSYANSFLHWYQQKPGQPPKLLIYRASTRESGVPDRFSGSGSGTDFTLTISSLQAEDVAVYYCQQSKEDPLTFGGGTKVEIK
Given back: true (1)
